Tested on: Haemophilus parainfluenzae
measurementProtocol: growth AUC normalised to DMSO control (fraction of control); higher = less growth inhibition, active = hit call of the paper;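 active = AUC significantly below DMSO controls by Student t-fit with adjusted P under 0.01; inactive = not significantly reduced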
statedConditions: 20 µM
Structures can show the parent of a compound that is named as a salt.
Just give me one of these, please: 1 for active, -1 for inactive

-- ask Which outcome was entered for the compound O=C1OCCN1/N=C/c1ccc([N+](=O)[O-])o1 [Furazolidone] in this test?
-- reply 1

-- ask Per the records of this test, what outcome belongs to COC(=O)C1=C(C)NC(C)=C(C(=O)OCCN(C)Cc2ccccc2)C1c1cccc([N+](=O)[O-])c1 (stereo not drawn) [Nicardipine hydrochloride] ?
-- reply -1

-- ask Give the logged outcome of this assay for the following compound: CC(=O)O[C@H]1CC[C@@]2(C)C(=CC[C@@H]3[C@@H]2CC[C@]2(C)C(=O)CC[C@@H]32)C1 [Dehydroisoandosterone 3-acetate]
-- reply -1

-- ask GET /call?item= O=C(Nc1ccccc1)OCC(CN1CCCCC1)OC(=O)Nc1ccccc1 (stereo not drawn) [Diperodon hydrochloride] returns the recorded outcome of this test.
-- reply -1

-- ask Please state the recorded outcome for this compound: CCN1C(=O)NC(c2ccccc2)C1=O (stereo not drawn) [Ethotoin]
-- reply -1

-- ask Which result was noted for this compound in the test: COc1ccccc1OCC(O)CN1CCN(CC(=O)Nc2c(C)cccc2C)CC1 (stereo not drawn) [Ranolazine]
-- reply -1

-- ask For this compound, state the assay outcome: OC(CCN1CCCCC1)(c1ccccc1)c1ccccc1 [Pridinol methanesulfonate salt]
-- reply -1

-- ask For CNCCC=C1c2ccccc2C=Cc2ccccc21 [Norcyclobenzaprine] , what call appears in the results of this test?
-- reply -1

-- ask Per the assay record, what outcome was assigned to O=C(O)CCC(=O)Nc1ccc(S(=O)(=O)Nc2nccs2)cc1 [Succinylsulfathiazole] ?
-- reply -1

-- ask Just curious, what result did O=C1Nc2ccc(Cl)cc2[C@@](C#CC2CC2)(C(F)(F)F)O1 [Efavirenz] get here?
-- reply -1

-- ask What classification did CC(=O)[C@H]1CC[C@H]2[C@@H]3C[C@H](C)C4=CC(=O)CC[C@]4(C)[C@H]3[C@@H](O)C[C@]12C [Medrysone] end up with in this test?
-- reply -1

-- ask Would you mind telling me which call this test gave CC(C)(Sc1cc(C(C)(C)C)c(O)c(C(C)(C)C)c1)Sc1cc(C(C)(C)C)c(O)c(C(C)(C)C)c1 [Probucol] ?
-- reply -1

-- ask Assay result, entry CC(C)COCC(CN(Cc1ccccc1)c1ccccc1)N1CCCC1 (stereo not drawn) [Bepridil hydrochloride] — outcome?
-- reply -1

-- ask How was C[C@H](O)C(=O)Nc1c(I)c(C(=O)NC(CO)CO)c(I)c(C(=O)NC(CO)CO)c1I [Iopamidol] classified in this test?
-- reply -1

-- ask Tell me the recorded outcome of this test for O=S(=O)(O)c1cc(O)ccc1O [Ethamsylate diethylammonium salt] .
-- reply -1

-- ask Returns: the outcome recorded for C[C@@H](O)[C@H]1C(=O)N2C(C(=O)O)=C(S[C@@H]3CN[C@H](C(=O)N(C)C)C3)[C@H](C)[C@H]12 [Meropenem] in this assay.
-- reply 1

-- ask Please let me know the test result on file for O=C(O)COC(=O)Cc1ccccc1Nc1c(Cl)cccc1Cl [Aceclofenac] .
-- reply -1

-- ask Check the results log: what was the call for c1ccc2c(c1)OCC(C1=NCCN1)O2 (stereo not drawn) [Idazoxan hydrochloride] ?
-- reply -1

-- ask Call for entry CN/C(=N\CCSCc1nc[nH]c1C)NC#N [Cimetidine] :
-- reply -1

-- ask How was NC[C@@H]1O[C@@H](O[C@H]2[C@H](O)[C@@H](O[C@H]3O[C@H](CO)[C@@H](O)[C@H](N)[C@H]3O)[C@H](N)C[C@@H]2N)[C@@H](O)[C@H](O)[C@H]1O [Kanamycin A sulfate] classified in this test?
-- reply -1

-- ask How did this test come out for Nc1nc(=S)c2ncn([C@@H]3O[C@H](CO)[C@@H](O)[C@H]3O)c2[nH]1 [Thioguanosine] ?
-- reply -1

-- ask Could you please tell me the result logged for C[N+]1(C)CCC(=C(c2ccccc2)c2ccccc2)CC1 [Diphemanil methylsulfate] in this assay?
-- reply -1

-- ask Hi, sorry to bother you, what did the test record for C[C@H](CS)C(=O)N1CCC[C@H]1C(=O)O [Captopril] ?
-- reply -1

-- ask Recorded call for Oc1c(Cl)cc(Cl)c2cccnc12 [Chloroxine] ?
-- reply 1

-- ask Identify the outcome logged in this assay for the compound shown: CC(=O)OCC(=O)[C@@]1(O)CC[C@H]2[C@@H]3CCC4=CC(=O)CC[C@]4(C)[C@H]3[C@@H](O)C[C@@]21C [Cortisol acetate]
-- reply -1

-- ask State the result this test recorded for NS(=O)(=O)c1cc2c(cc1Cl)N=CNS2(=O)=O [Chlorothiazide] .
-- reply -1

-- ask Please indicate how the test categorized C[C@]12CC[C@@H]3c4ccc(O)cc4C[C@@H](CCCCCCCCC[S+]([O-])CCCC(F)(F)C(F)(F)F)[C@H]3[C@@H]1CC[C@@H]2O (stereo partly drawn) [Fulvestrant] .
-- reply -1

-- ask Could you kindly confirm the outcome this assay logged for CC(=O)N[C@@H](CS)C(=O)O [Acetylcysteine] ?
-- reply -1

-- ask State the result this test recorded for CC(=O)Oc1cccc2c1C(=O)c1c(OC(C)=O)cc(C(=O)O)cc1C2=O [Diacerein] .
-- reply 1

-- ask Field: outcome | Entry: CCOC(=O)C1=C(COCCN)NC(C)=C(C(=O)OC)C1c1ccccc1Cl (stereo not drawn) [Amlodipine]
-- reply -1

-- ask Check the results log: what was the call for Clc1cccc(Cl)c1NC1=NCCN1 [Clonidine hydrochloride] ?
-- reply -1

-- ask Recorded test call requested for CCOC(=O)n1ccn(C)c1=S [Carbimazole]
-- reply -1

-- ask # outcome recorded in this test, key = C=C1c2cccc(O)c2C(O)=C2C(=O)[C@]3(O)C(O)=C(C(N)=O)C(=O)[C@@H](N(C)C)[C@@H]3[C@@H](O)[C@H]12 [Methacycline hydrochloride]
-- reply 1

* * *

Test system: Haemophilus parainfluenzae
measurementProtocol: growth AUC normalised to DMSO control (fraction of control); higher = less growth inhibition, active = hit call of the paper
statedConditions: 20 µM
Label scheme for growth AUC normalised to DMSO control: lower than 1 is 0.0, 1 and above is 1.0.

-- ask Evaluate CCC1NC(=O)c2cc(S(N)(=O)=O)c(Cl)cc2N1 (stereo unspecified) : growth AUC normalised to DMSO control at minimum 1?
-- reply 1.0

-- ask Does CCCC(C)(COC(N)=O)COC(=O)NC(C)C (stereo unspecified) have a reported growth AUC normalised to DMSO control of at least 1?
-- reply 0.0

-- ask Hi team, for N=C(N)NS(=O)(=O)c1ccc(N)cc1 , is the recorded growth AUC normalised to DMSO control at or above 1?
-- reply 1.0

* * *

System: Yersinia pseudotuberculosis
measurementProtocol: growth AUC normalised to DMSO control (fraction of control); higher = less growth inhibition, active = hit call of the paper;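 active = AUC significantly below DMSO controls by Student t-fit with adjusted P under 0.01; inactive = not significantly reduced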
statedConditions: 20 µM
Counter-ions that a name gives are not always drawn.
Write down the outcome that applies. Available outcomes: active, inactive

-- ask Test call for this molecule, please: CC(=O)O[C@H]1C[C@H](O[C@H]2[C@@H](O)C[C@H](O[C@H]3[C@@H](O)C[C@H](O[C@H]4CC[C@@]5(C)[C@H](CC[C@@H]6[C@@H]5C[C@@H](O)[C@]5(C)[C@@H](C7=CC(=O)OC7)CC[C@]65O)C4)O[C@@H]3C)O[C@@H]2C)O[C@H](C)[C@H]1O[C@@H]1O[C@H](CO)[C@@H](O)[C@H](O)[C@H]1O [Lanatoside C]
-- reply inactive

-- ask Please state the recorded outcome for this molecule: Oc1cc(Cl)ccc1Oc1ccc(Cl)cc1Cl
-- reply inactive

-- ask Name the outcome recorded for CN1CCN(C(=O)OC2c3nccnc3C(=O)N2c2ccc(Cl)cn2)CC1 (stereo not given) in the assay.
-- reply inactive

-- ask Tell me the assay call for C[N+]1([O-])[C@@H]2C[C@@H](OC(=O)[C@H](CO)c3ccccc3)C[C@H]1[C@@H]1O[C@@H]12 (stereo not given in full) [Scopolamin-N-oxide hydrobromide] please.
-- reply inactive

-- ask # fetch the recorded call for CN1C(=O)CCS(=O)(=O)C1c1ccc(Cl)cc1 (stereo not given) here
-- reply inactive

-- ask // outcome(item) with item = CC(N)C(O)c1ccccc1 (stereo not given) [Phenylpropanolamine hydrochloride]
-- reply inactive

-- ask Test call, this molecule: NCCc1c[nH]c2ccc(O)cc12 [Serotonin hydrochloride]
-- reply inactive

-- ask Entry CN(C)C(=O)Oc1ccc[n+](C)c1 [Pyridostigmine iodide] : call = ?
-- reply inactive

-- ask Outcome logged for CO[C@]12C[C@@H](COC(=O)c3cncc(Br)c3)CN(C)[C@@H]1Cc1cn(C)c3cccc2c13 in this assay:
-- reply inactive

-- ask Hi team, can someone confirm the assay call for CCN[C@@H](C)Cc1cccc(C(F)(F)F)c1 [Dexfenfluramine hydrochloride] ?
-- reply inactive

-- ask Give the logged outcome of this assay for the following molecule: O=[N+]([O-])O[C@H]1CO[C@H]2[C@@H]1OC[C@H]2O[N+](=O)[O-] [Isosorbide dinitrate]
-- reply inactive

-- ask Please share the test call associated with NCC(O)c1ccc(O)cc1 (stereo not given) [Octopamine hydrochloride] .
-- reply inactive

-- ask Short answer needed: outcome of this test for CN(C)[C@@H]1C(=O)C(C(N)=O)=C(O)[C@@]2(O)C(=O)C3=C(O)c4c(O)ccc(Cl)c4[C@@](C)(O)[C@H]3C[C@@H]12 [Chlortetracycline hydrochloride] ?
-- reply active

-- ask Which outcome was entered for the molecule COc1ccc(Cc2nccc3cc(OC)c(OC)cc23)cc1OC [Papaverine hydrochloride] in this test?
-- reply inactive

-- ask Any idea what this test logged for C#CCN(C)[C@H](C)Cc1ccccc1 [Selegiline hydrochloride] ?
-- reply inactive

Taken from the supplement of paper PMC12350171.
